Measured pIC50, listed per entry.
Molecular target: human A3 receptor (Homo sapiens)
Sequence (P0DMS8 1-318): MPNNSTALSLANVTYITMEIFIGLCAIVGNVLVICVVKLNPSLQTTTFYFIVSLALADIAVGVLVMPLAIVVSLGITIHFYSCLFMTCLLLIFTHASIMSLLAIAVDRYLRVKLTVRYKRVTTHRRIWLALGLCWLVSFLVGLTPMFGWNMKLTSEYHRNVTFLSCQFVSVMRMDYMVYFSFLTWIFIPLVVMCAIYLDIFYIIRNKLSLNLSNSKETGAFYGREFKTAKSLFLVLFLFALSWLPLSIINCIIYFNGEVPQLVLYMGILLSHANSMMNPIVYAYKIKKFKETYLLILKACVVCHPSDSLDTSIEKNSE
Assay: functional cAMP (HTRF) assay, recombinant CHO cells expressing human A3 receptor, forskolin, agonist IB-MECA
pIC50: −log10 of the molar value.

Example results:
Challenge: Dear colleague, I am looking for the recorded pIC50 of the following molecule: COCCn1cc(C(=O)Nc2nc3c(-c4ccnc5[nH]ccc45)ccc(OC)c3[nH]2)cn1 [compound 278]
Response given: > 6.00

Challenge: Dear colleague, I am looking for the recorded pIC50 of the following molecule: COc1ccc(-c2ccccc2)c2nc(NC(=O)c3cn(C)nc3C)[nH]c12 [compound 269]
Response given: > 6.00

Challenge: Dear colleague, I am looking for the recorded pIC50 of the following molecule: COc1ccc(-c2ccccc2F)c2nc(NC(=O)N3CCC(C)(O)CC3)[nH]c12 [compound 218]
Response given: < 6.00

Further cases:
Challenge: Dear colleague, I am looking for the recorded pIC50 of the following molecule: COc1ccc(-c2cnn(CCC(C)C)c2)c2nc(NC(=O)N3CCC(C)(O)CC3)[nH]c12 [compound 151]
Response given: < 6.00

Challenge: Dear colleague, I am looking for the recorded pIC50 of the following molecule: COc1ccc(-c2cnn(C)c2)c2nc(NC(=O)c3ccnc(N4CCOCC4)c3)[nH]c12 [compound 26]
Response given: > 6.00

Challenge: Dear colleague, I am looking for the recorded pIC50 of the following molecule: COc1ccc(-c2cnn(C)c2)c2nc(NC(=O)c3ccc(CN4CCOCC4)cc3)[nH]c12 [compound 152]
Response given: > 6.00

Challenge: Dear colleague, I am looking for the recorded pIC50 of the following molecule: COc1ccc(-c2ccnc3[nH]ccc23)c2[nH]c(NC(=O)N3CCC(C)(O)CC3)nc12 [compound 270]
Response given: < 6.00

Challenge: Dear colleague, I am looking for the recorded pIC50 of the following molecule: COc1ccc(C2CCOCC2)c2nc(NC(=O)c3ccnc(N4CCC(C)(O)C4)c3)[nH]c12 (stereo not shown) [compound 122]
Response given: < 6.00

meta.source: patent US11453647B2
